Below, each entry is listed with its recorded Substrate Selectivity: Ki_AMP-pNP/Ki_cGAMP.
experimental-system: ENPP1 (Homo sapiens, UniProt P22413)
Sequence (P22413 1-925): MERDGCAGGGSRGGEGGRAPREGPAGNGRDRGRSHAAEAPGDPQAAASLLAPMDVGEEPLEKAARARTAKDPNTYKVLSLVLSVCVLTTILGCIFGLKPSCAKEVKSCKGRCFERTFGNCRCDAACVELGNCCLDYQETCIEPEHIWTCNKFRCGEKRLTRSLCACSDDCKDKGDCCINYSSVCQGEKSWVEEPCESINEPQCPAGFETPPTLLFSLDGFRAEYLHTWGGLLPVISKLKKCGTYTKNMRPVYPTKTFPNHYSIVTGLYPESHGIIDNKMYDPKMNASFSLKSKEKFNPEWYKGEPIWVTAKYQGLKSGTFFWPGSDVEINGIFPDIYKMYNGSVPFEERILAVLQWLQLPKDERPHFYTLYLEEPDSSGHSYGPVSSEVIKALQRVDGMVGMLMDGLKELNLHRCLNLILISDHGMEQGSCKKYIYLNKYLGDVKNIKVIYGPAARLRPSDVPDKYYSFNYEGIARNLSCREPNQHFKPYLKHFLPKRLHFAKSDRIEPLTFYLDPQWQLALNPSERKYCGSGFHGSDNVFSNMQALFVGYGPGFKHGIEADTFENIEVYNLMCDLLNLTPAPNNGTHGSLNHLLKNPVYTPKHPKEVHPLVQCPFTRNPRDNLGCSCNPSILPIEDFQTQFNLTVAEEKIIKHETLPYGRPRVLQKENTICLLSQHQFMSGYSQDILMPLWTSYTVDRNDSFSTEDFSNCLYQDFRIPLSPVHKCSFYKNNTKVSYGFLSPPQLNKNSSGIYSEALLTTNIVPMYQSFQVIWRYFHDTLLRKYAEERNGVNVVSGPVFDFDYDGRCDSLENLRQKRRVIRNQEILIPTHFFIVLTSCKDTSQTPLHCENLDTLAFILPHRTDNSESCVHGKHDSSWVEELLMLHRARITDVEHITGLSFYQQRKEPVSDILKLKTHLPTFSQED
experiment-summary: Substrate selectivity ratio, inhibition of cGAMP hydrolysis versus ATP hydrolysis
Type: biochemical
assay-conditions: ratio Ki AMP-pNP / Ki cGAMP
Returns: the value as a bare number; no unit string appended.

COc1cc2nccc(-c3ccc(CN(O)C=O)cc3)c2cc1OC 28.6

The record that follows has no Substrate Selectivity: Ki_AMP-pNP/Ki_cGAMP shown yet.
Entry `COc1ccc2c(N3CCc4cc(NS(N)(=O)=O)ccc43)c(C)cnc2c1` under ENPP1 (Homo sapiens, UniProt P22413) had Substrate Selectivity: Ki_AMP-pNP/Ki_cGAMP of 42

====

Reported Substrate Selectivity: Ki_AMP-pNP/Ki_cGAMP values follow for various compounds
experimental-system: UniProt P22413
experiment-summary: Substrate selectivity ratio, inhibition of cGAMP hydrolysis versus ATP hydrolysis
Format: biochemical
assay-conditions: ratio Ki AMP-pNP / Ki cGAMP

compound	experimental-system	result
NS(=O)(=O)c1ccc(Oc2ccnc3[nH]c(=O)ccc23)cc1	UniProt P22413	43

# compound `COc1cc2nccc(N3CCC(CCNS(N)(=O)=O)CC3)c2cc1OC` ; its Substrate Selectivity: Ki_AMP-pNP/Ki_cGAMP = 22.9

Memo: `COc1ccc2c(-c3ccc(CNS(N)(=O)=O)c(OC)c3)ccnc2c1` , reported Substrate Selectivity: Ki_AMP-pNP/Ki_cGAMP: >136

response.value for `NS(=O)(=O)N1CCc2ccc(-c3ccnc4cc(F)ccc34)cc2C1` (field: Substrate Selectivity: Ki_AMP-pNP/Ki_cGAMP) = >133

Quick note, Substrate Selectivity: Ki_AMP-pNP/Ki_cGAMP for `COc1ccc2c(Oc3ccc(CS(N)(=O)=O)cc3)ccnc2c1` landed at 28.2

The compound listed as `COc1cc2ncc(F)c(N3CCC(CCNS(N)(=O)=O)CC3)c2cc1OC` shows Substrate Selectivity: Ki_AMP-pNP/Ki_cGAMP equal to 35.1

Please fill in: Substrate Selectivity: Ki_AMP-pNP/Ki_cGAMP reported for `COc1ccc2c(Oc3ccc(NS(N)(=O)=O)cc3F)ccnc2c1` = 13.3

Record summary for `NS(=O)(=O)c1ccc(CNc2ncnc3cc(F)ccc23)cc1` : reported Substrate Selectivity: Ki_AMP-pNP/Ki_cGAMP = >34.0

# Substrate Selectivity: Ki_AMP-pNP/Ki_cGAMP (compound: `COc1cc2nccc(N3CCC(CCNS(=O)(=O)NC(C)=O)CC3)c2cc1OC` ) is > 33.7

Entry `COc1cc2nccc(N3CCC(CCNS(N)(=O)=O)CC3)c2cn1` , Substrate Selectivity: Ki_AMP-pNP/Ki_cGAMP reported as > 39.4
